Listed here: items and their measured IC50.
# test: Inhibition of calcium stimulated Mycobacterium tuberculosis H37Ra CtpF mutant ATPase activity using Na2ATP as substrate preincubated for 30 mins followed by substrate addition and measured after 30 mins by colorimetric analysis
endpoint_label: IC50 (µM)

{"molecule": "C[C@@H](OC(=O)CCCNC1=NS(=O)(=O)c2ccccc21)C(=O)c1c[nH]c2ccccc12", "endpoint_label": "IC50", "unit_of_measurement": "µM", "experimental_value": 102}
{"molecule": "CC(=O)C1=C(O)[C@@H]2[C@H]3c4c[nH]c5cccc(c45)C[C@H]3C(C)(C)N2C1=O [CYCLOPIAZONIC ACID]", "endpoint_label": "IC50", "unit_of_measurement": "µM", "experimental_value": 94.5}
{"molecule": "NS(=O)(=O)[C@H]1CC=C(CNC(=O)CCCc2c[nH]c3ccccc23)S1", "endpoint_label": "IC50", "unit_of_measurement": "µM", "experimental_value": 100}
{"molecule": "O=C(CCCC[C@@H]1SC[C@@H]2NC(=O)N[C@@H]21)NCc1cn(-c2ccccc2)nc1-c1ccccc1", "endpoint_label": "IC50", "unit_of_measurement": "µM", "experimental_value": 76.1}
{"molecule": "CCCCC(=O)Nc1cccc(C(=O)NCCCNc2cccnc2)c1", "endpoint_label": "IC50", "unit_of_measurement": "µM", "experimental_value": 96.9}
{"molecule": "CCC[C@H](C)NC(=O)CSc1nc2cc(S(=O)(=O)Nc3ccccc3OC)ccc2o1", "endpoint_label": "IC50", "unit_of_measurement": "µM", "experimental_value": 109}
{"molecule": "COCC(=O)Nc1c(C(=O)OC)n(CCC(C)C)c2ncc(N[C@@H](C)C(C)(C)O)cc12", "endpoint_label": "IC50", "unit_of_measurement": "µM", "experimental_value": 38.4}

Values from ChEMBL document CHEMBL4610027
